- Protocol: Phase solubility of latanoprost in the presence of SBE-β-CD (CAPTISOL)
- Format: physicochemical
- Condition Description: aqueous test solution without SBE-β-CD (0% w/v), pH 8.57, water, thermodynamic from solid; without CAPTISOL; room temperature, 24 hours; read-out: Latanoprost (solubility)
Value Type: solubility at 24 h (µg/mL)

[[record]]
structure_string = "CC(C)OC(=O)CCC/C=C\\C[C@@H]1[C@@H](CC[C@@H](O)CCc2ccccc2)[C@H](O)C[C@@H]1O"
u = "µg/mL"
measured = 40

